melting point for assorted molecules

Past entries and their recorded results:
| molecule | melting point |
| --- | --- |
| CC(=O)Nc1ccccc1OC(CCc1ccc(Cl)cc1)Cn1ccnc1 (stereo unspecified) | 151 to 152 °C |
| Cc1cccc2[nH]c3c4c(Cl)cccc4nc-3cc12 | 170 to 172 °C |
| Cc1nc2ccc(CCc3ccccc3)cn2c1CC#N | 139 to 141 °C |

Read off the recorded melting point for O=C(Cn1nc(C(F)(F)F)cc1Cl)N1CCC(c2nc(C3=NOC(c4ccccc4)C3)cs2)CC1 (stereo unspecified) 128 to 131 °C

Read off the recorded melting point for Cc1cc(OCc2cn(-c3ccc(C(F)(F)F)cn3)nc2C)ccc1CCC(=O)O 144 to 145 °C

Read off the recorded melting point for CCC(=O)ON=C(c1ccccc1)c1cc(C(C)(C)C)c(O)c(C(C)(C)C)c1 132 to 134 °C

Read off the recorded melting point for N#Cc1c(N2CCc3ccccc3CC2)nc(N)n(N)c1=O > 200 °C

Read off the recorded melting point for COc1ccccc1-n1nc(-c2c(-c3ccccc3)nn3ccccc23)ccc1=O 163 °C

Read off the recorded melting point for CCCC(=O)Nc1n[nH]c2cc(-c3ccc([N+](=O)[O-])cc3)ccc12 250 °C

Read off the recorded melting point for O=C(O)CCC1CC(O)C(=O)N1 (stereo unspecified) 129 to 132 °C

Read off the recorded melting point for Fc1cccc(F)c1Cn1c(-c2c(F)cccc2F)nc2c(CCl)cccc21 143 to 144 °C

Read off the recorded melting point for ClCc1csc(/C=C/c2ccccc2)n1 88 to 89 °C

Where these numbers come from: a melting point compilation (Tetko et al.; mined from patent text by program, amines drawn as free bases though some values may be those of a salt)
